B1: Azoarcus group I ribozyme (parent)
chain: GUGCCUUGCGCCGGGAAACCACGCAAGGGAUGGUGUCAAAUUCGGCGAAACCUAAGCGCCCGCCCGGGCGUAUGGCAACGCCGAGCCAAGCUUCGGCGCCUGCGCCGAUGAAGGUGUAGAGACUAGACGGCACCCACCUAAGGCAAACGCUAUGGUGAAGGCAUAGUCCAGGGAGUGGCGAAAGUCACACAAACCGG

# Variants of: B1
# assaySummary: reverse-splicing fitness (ratio to wild type); higher = more active; in vitro selection; Mg2+ level not given
Reported reverse-splicing fitness values follow for various variants

mutantLabel: A111C A120U A145G C150G C169A U176C
reverse-splicing fitness: 0.009
//
mutantLabel: A111G C169U U176C
reverse-splicing fitness: 0.0614
//
mutantLabel: C82U A111G A145C C150A C169U U176A
reverse-splicing fitness: 0.0133
//
mutantLabel: A111U A120G A145C C150U U176C
reverse-splicing fitness: 0.0201
//
mutantLabel: A111C A120C C150A C169A U176C
reverse-splicing fitness: 0.0141
//
mutantLabel: C82A A111C A120U A145G C169A U176A
reverse-splicing fitness: 0.00438
//
mutantLabel: C150G C169A
reverse-splicing fitness: 0.02
//
mutantLabel: C82G A120G A145U C150A C169U U176A
reverse-splicing fitness: 0.02
//
mutantLabel: C150U C169G
reverse-splicing fitness: 0.172
//
mutantLabel: C82A A111C A145U C150G C169G U176C
reverse-splicing fitness: 0.0061
//
mutantLabel: C82G A120C C150U C169U U176C
reverse-splicing fitness: 0.0162
//
mutantLabel: A120G A145G C150G C169A U176A
reverse-splicing fitness: 0.0181
//
mutantLabel: C82G A111U A120U C150U C169G U176C
reverse-splicing fitness: 0.00433
//
mutantLabel: A111G A120C A145C C150U C169G
reverse-splicing fitness: 0.00938
//
mutantLabel: C82A A111U A120U C150A C169G U176C
reverse-splicing fitness: 0.00511
//
mutantLabel: A145G C169A U176C
reverse-splicing fitness: 0.0662
//
mutantLabel: C82U A111U A120U A145G C150G C169U U176A
reverse-splicing fitness: 0.00611
//
mutantLabel: A120U A145G C150U C169A U176A
reverse-splicing fitness: 0.00538
//
mutantLabel: C82G A111U C169U
reverse-splicing fitness: 0.0134
//
mutantLabel: C82G A120C A145C C169G U176C
reverse-splicing fitness: 0.0161
//
mutantLabel: C82A A111C A120C A145U U176G
reverse-splicing fitness: 0.00692
//
mutantLabel: C82G A111G A120U A145U C169U
reverse-splicing fitness: 0.00451
